We begin with a simple list: items and their reported Avg % Deletion.
Tested on: TTR
Test: TTR editing in primary human hepatocytes transfected with Spy Cas9 protein (RNP) loaded with dgRNAs (Table 8)
Type: cell-based
Conditions: dgRNA transfected with Spy Cas9 protein (RNP)
Property name: Avg % Deletion (%)

> print(dat)
                      macromolecule.sequence   property.name  obs.value
 1  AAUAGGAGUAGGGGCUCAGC (tested as dual guide RNA, chemistry not given here) [CR003384]  Avg % Deletion       0.17
 2  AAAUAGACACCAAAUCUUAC (tested as dual guide RNA, chemistry not given here) [CR003366]  Avg % Deletion       4.79
 3  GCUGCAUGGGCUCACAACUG (tested as dual guide RNA, chemistry not given here) [CR003361]  Avg % Deletion       0.56
 4  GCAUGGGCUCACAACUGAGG (tested as dual guide RNA, chemistry not given here) [CR003362]  Avg % Deletion       0.56
 5  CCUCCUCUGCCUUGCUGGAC (tested as dual guide RNA, chemistry not given here) [CR003336]  Avg % Deletion       0.58
 6  CAGAGGACACUUGGAUUCAC (tested as dual guide RNA, chemistry not given here) [CR003343]  Avg % Deletion       1.63
 7  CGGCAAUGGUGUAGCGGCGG (tested as dual guide RNA, chemistry not given here) [CR003376]  Avg % Deletion       0.14
 8  GCGGCAAUGGUGUAGCGGCG (tested as dual guide RNA, chemistry not given here) [CR003377]  Avg % Deletion       0.31
 9  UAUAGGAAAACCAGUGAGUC (tested as dual guide RNA, chemistry not given here) [CR005305]  Avg % Deletion       0.34
10  UCCACUCAUUCUUGGCAGGA (tested as dual guide RNA, chemistry not given here) [CR005298]  Avg % Deletion      10.95
11  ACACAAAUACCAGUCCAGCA (tested as dual guide RNA, chemistry not given here) [CR003339]  Avg % Deletion      36.21
12  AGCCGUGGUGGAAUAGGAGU (tested as dual guide RNA, chemistry not given here) [CR005299]  Avg % Deletion       0.58
13  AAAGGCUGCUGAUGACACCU (tested as dual guide RNA, chemistry not given here) [CR003353]  Avg % Deletion       2.16
14  GGCCGUGCAUGUGUUCAGAA (tested as dual guide RNA, chemistry not given here) [CR005304]  Avg % Deletion      45.13

* * *

Each entry below carries its reported Avg % Edit.
Tested on: TTR
Assay: TTR editing in primary human hepatocytes transfected with Spy Cas9 protein (RNP) loaded with dgRNAs (Table 8)
Type: cell-based
Settings: dgRNA transfected with Spy Cas9 protein (RNP)
Property name: Avg % Edit

> print(dat)
                     macromolecule.sequence  obs.value
1  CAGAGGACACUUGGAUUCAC (tested as dual guide RNA, chemistry not given here) [CR003343]     43.25%
2  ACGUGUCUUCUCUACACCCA (tested as dual guide RNA, chemistry not given here) [CR005302]     48.29%
3  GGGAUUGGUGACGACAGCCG (tested as dual guide RNA, chemistry not given here) [CR003390]     16.09%
4  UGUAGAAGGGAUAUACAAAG (tested as dual guide RNA, chemistry not given here) [CR003365]     47.78%
5  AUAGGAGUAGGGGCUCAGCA (tested as dual guide RNA, chemistry not given here) [CR003383]      4.76%
6  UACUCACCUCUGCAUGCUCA (tested as dual guide RNA, chemistry not given here) [CR003372]     17.56%
7  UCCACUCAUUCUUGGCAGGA (tested as dual guide RNA, chemistry not given here) [CR005298]     32.07%

* * *

System: TTR
Assay: TTR editing in HEK293_Cas9 cells transfected with dgRNAs (Table 4)
Format: cell-based, human
Conditions: HEK293_Cas9 cells (constitutively express Spy Cas9) transfected with dgRNAs
Procedure: HEK293 Cas9 cell line. The human embryonic kidney adenocarcinoma cell line HEK293 constitutively expressing Spy Cas9 (“HEK293_Cas9”) was cultured in DMEM media supplemented with 10% fetal bovine serum and 500 μg/ml G418. […] To quantitatively determine the efficiency of editing at the target location in the genome, sequencing was utilized to identify the presence of insertions and deletions introduced by gene editing. […]
Property name: Avg % Insert (%)

> print(dat)
                     macromolecule.sequence  target.or.test.system  property.name  obs.value
1  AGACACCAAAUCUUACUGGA (tested as dual guide RNA, chemistry not given here) [CR003367]                    TTR   Avg % Insert      28.44
2  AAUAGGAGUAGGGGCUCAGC (tested as dual guide RNA, chemistry not given here) [CR003384]                    TTR   Avg % Insert       1.45
3  ACCUGGGAGCCAUUUGCCUC (tested as dual guide RNA, chemistry not given here) [CR003354]                    TTR   Avg % Insert       2.56
4  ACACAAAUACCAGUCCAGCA (tested as dual guide RNA, chemistry not given here) [CR003339]                    TTR   Avg % Insert      49.39
5  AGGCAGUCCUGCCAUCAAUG (tested as dual guide RNA, chemistry not given here) [CR003348]                    TTR   Avg % Insert      22.32
6  GGCGGCAAUGGUGUAGCGGC (tested as dual guide RNA, chemistry not given here) [CR003378]                    TTR   Avg % Insert       4.49
7  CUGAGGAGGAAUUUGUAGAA (tested as dual guide RNA, chemistry not given here) [CR003364]                    TTR   Avg % Insert      19.17
